target: Glutamate NMDA receptor; assay: Compound was evaluated for the inhibition of [3H]-CGS-19,755 binding at N-methyl-D-aspartate glutamate receptor
The entries below are paired with their reported pIC50.
Scale explanation: pIC50 corresponds to minus log10 of a concentration expressed in moles per litre.

Prompt: What pIC50 value was documented for this compound, NC(C(=O)O)c1nnn[nH]1 (racemic) ?
Response: 7.01

Prompt: Another compound to check: CN[C@H](CC(=O)O)C(=O)O [N-METHYL-D-ASPARTIC ACID (NMDA)]
Response: 5.38

Prompt: Another compound to check: "N[C@]1(C(=O)O)C[C@@H](C(=O)O)C1"
Response: 6.79

Prompt: Another compound to check: N[C@@H](CC(=O)O)C(=O)O [ASPARTIC ACID]
Response: 5.79

* * *

biological target: Glutamate NMDA receptor; experiment: Compound was evaluated for the inhibition of [3H]norepinephrine binding at N-methyl-D-aspartate glutamate receptor; assay type: protein-complex assay
quantity measured: EC50 (µM)
Could you give me the number in µM? Just the number is fine.

Known results for molecules:
molecule: N[C@]1(C(=O)O)C[C@@H](C(=O)O)C1
EC50 [µM]: 16.5

molecule: NC(C(=O)O)c1nnn[nH]1 (racemic)
EC50 [µM]: 2.03

Would you kindly look at the next entry?
Prompt: What EC50 value was documented for this molecule, CN[C@H](CC(=O)O)C(=O)O [N-METHYL-D-ASPARTIC ACID (NMDA)] ?
Response: 75
